Give MIC for every item shown.
# Method Summary: Evaluation for antiviral activity against herpes simplex virus-2(196) in primary rabbit kidney cell cultures(PRK) (Concentration required to reduce virus-induced cytopathogenicity by 50%)
# Assay type: functional
# Condition Parameters: Oryctolagus cuniculus
# number only, unit µg/mL dropped from output

MIC in this record for COc1ccc2[nH]c3c(c2c1)CCN1OCSC[C@@H](N)[C@@H]31 : 0.02

MIC in this record for Cn1c2c(c3ccccc31)CCN1OCSC[C@@H](N)[C@@H]21 : 1

MIC in this record for N[C@H]1CSCON2CCc3c([nH]c4ccccc34)[C@@H]12 : 2

MIC in this record for O=c1[nH]c(=O)n([C@H]2C[C@H](O)[C@@H](CO)O2)cc1/C=C/Br : 70

MIC in this record for N[C@@H]1CSCON2CCc3c([nH]c4ccccc34)[C@H]12 : 0.2

MIC in this record for N[C@H]1CSCON2CCc3c([nH]c4ccccc34)[C@H]12 : 2
